We begin with pKi values for WD repeat-containing protein 5 (Homo sapiens, UniProt P61964), as collected from the published literature.
The read-out pKi is expressed as -log10 of concentration in moles per litre.

Task item: For the record `CCc1ccc2c(N3CCc4c(cc(Cn5ccnc5)cc4-c4cn(C)nc4C(F)(F)F)C3=O)cccc2n1` , what value of pKi is listed for WD repeat-containing protein 5 (Homo sapiens, UniProt P61964)?
Reply: 10.68

Task item: For the record `CNC(=O)c1cc(C2CC2)cc(NS(=O)(=O)c2cc(Br)cc(Cl)c2O)c1F` , what value of pKi is listed for WD repeat-containing protein 5 (Homo sapiens, UniProt P61964)?
Reply: 6.68

Task item: For the record `O=C(NCCN1CCOCC1)c1c(O)c(NS(=O)(=O)c2cc(Br)cc(Cl)c2O)cc(C2CC2)c1F` , what value of pKi is listed for WD repeat-containing protein 5 (Homo sapiens, UniProt P61964)?
Reply: 6.22

Task item: For the record `O=C(O)c1cc(Cl)cc(NS(=O)(=O)c2cc(Cl)c(F)cc2O)c1O` , what value of pKi is listed for WD repeat-containing protein 5 (Homo sapiens, UniProt P61964)?
Reply: 4.66

Task item: For the record `O=C(NC1COC1)c1cc(C2CC2)cc(NS(=O)(=O)c2cc(Br)ccc2O)c1O` , what value of pKi is listed for WD repeat-containing protein 5 (Homo sapiens, UniProt P61964)?
Reply: 6.27

Task item: For the record `CS(=O)(=O)c1cc(NS(=O)(=O)c2cc(Br)cc(Cl)c2O)cc(S(F)(F)(F)(F)F)c1` , what value of pKi is listed for WD repeat-containing protein 5 (Homo sapiens, UniProt P61964)?
Reply: 7.52

Task item: For the record `COC[C@H]1CCCN1C(=O)c1cc(Cl)cc(NS(=O)(=O)c2cc(Br)ccc2O)c1O` , what value of pKi is listed for WD repeat-containing protein 5 (Homo sapiens, UniProt P61964)?
Reply: 5.08

Task item: For the record O=S(=O)(Nc1cn(C2CCNC2)cn1)c1cc(Br)cc(Cl)c1O (centres unmarked) , what value of pKi is listed for WD repeat-containing protein 5 (Homo sapiens, UniProt P61964)?
Reply: 4.99

====

We begin with pKi values for WD repeat-containing protein 5 (Homo sapiens), as collected from the published literature.
The read-out pKi is expressed as -log10 of concentration in moles per litre.

Task item: For the record `COc1ccc(Br)cc1S(=O)(=O)Nc1cc(Cl)cc(C(=O)O)c1O` , what value of pKi is listed for WD repeat-containing protein 5 (Homo sapiens)?
Reply: 6.74

Task item: For the record N#CC1(c2cc(NS(=O)(=O)c3cc(Br)ccc3O)c(O)c(C(=O)NCC3CCCCO3)c2)CCC1 (stereo not drawn) , what value of pKi is listed for WD repeat-containing protein 5 (Homo sapiens)?
Reply: 6.07

Task item: For the record `COc1ccc(Br)cc1S(=O)(=O)Nc1cc(Cl)cc(C(=O)N2CC(OC)C2)c1O` , what value of pKi is listed for WD repeat-containing protein 5 (Homo sapiens)?
Reply: 5.03

Task item: For the record O=S(=O)(Nc1cn(CC2CCCO2)cn1)c1cc(Br)ccc1O (stereo not drawn) , what value of pKi is listed for WD repeat-containing protein 5 (Homo sapiens)?
Reply: 4.72

Task item: For the record `COc1cc(CN2CCN(C(C)=O)CC2)c2nccc(N3CCc4c(cc(Cn5ccnc5)cc4-c4cn(C)nc4C(F)(F)F)C3=O)c2c1` , what value of pKi is listed for WD repeat-containing protein 5 (Homo sapiens)?
Reply: 10.68

Task item: For the record `COc1ccc2c(c1)c(N1CCc3c(cc(Cn4ccnc4C)cc3-c3cn(C)nc3C(F)(F)F)C1=O)cn2C` , what value of pKi is listed for WD repeat-containing protein 5 (Homo sapiens)?
Reply: 10.54

Task item: For the record `N#CC1(c2cc(NS(=O)(=O)c3cc(Br)ccc3O)c(O)c(C(N)=O)c2)CCC1` , what value of pKi is listed for WD repeat-containing protein 5 (Homo sapiens)?
Reply: 5.82

Task item: For the record `Cc1c(C2CC2)cc(NS(=O)(=O)c2cc(Br)ccc2O)c(O)c1C(=O)O` , what value of pKi is listed for WD repeat-containing protein 5 (Homo sapiens)?
Reply: 6.24

Task item: For the record `COCCNC(=O)c1cc(C2CC2)cc(NS(=O)(=O)c2cc(Br)ccc2O)c1O` , what value of pKi is listed for WD repeat-containing protein 5 (Homo sapiens)?
Reply: 6.25

Task item: For the record `O=C(NCCN1CCOCC1)c1cc(NS(=O)(=O)c2cc(Br)ccc2O)cc(C2CC2)c1F` , what value of pKi is listed for WD repeat-containing protein 5 (Homo sapiens)?
Reply: 5.53

Task item: For the record O=C(c1nc(NS(=O)(=O)c2cc(Br)cc(Cl)c2O)cn1C1CCCC1)N1CCC(C2CCNC2)CC1 (stereo not drawn) , what value of pKi is listed for WD repeat-containing protein 5 (Homo sapiens)?
Reply: 6.00

Task item: For the record `CNS(=O)(=O)c1cc(Cl)cc(NS(=O)(=O)c2cc(Br)ccc2O)c1O` , what value of pKi is listed for WD repeat-containing protein 5 (Homo sapiens)?
Reply: 4.81

Task item: For the record `CNC(=O)c1cc(C2(C#N)CCC2)cc(NS(=O)(=O)c2cc(Br)ccc2OC)c1O` , what value of pKi is listed for WD repeat-containing protein 5 (Homo sapiens)?
Reply: 6.41

Task item: For the record `COc1cc(Cl)c(Br)cc1S(=O)(=O)Nc1cc(C2CC2)cc(C(N)=O)c1O` , what value of pKi is listed for WD repeat-containing protein 5 (Homo sapiens)?
Reply: 4.89

Task item: For the record `COc1ccc(Br)cc1S(=O)(=O)Nc1cc(Cl)cc(NC(C)=O)c1O` , what value of pKi is listed for WD repeat-containing protein 5 (Homo sapiens)?
Reply: 4.16

Task item: For the record `O=C1CCCN1c1cc(Cl)cc(NS(=O)(=O)c2cc(Br)cc(Cl)c2O)c1` , what value of pKi is listed for WD repeat-containing protein 5 (Homo sapiens)?
Reply: 5.85

Task item: For the record `Cc1ccc2cncc(N3CCc4c(cc(Cc5ccncc5)cc4-c4cn(C)nc4C(F)(F)F)C3=O)c2c1` , what value of pKi is listed for WD repeat-containing protein 5 (Homo sapiens)?
Reply: 8.85

Task item: For the record `COc1cc2c(N3CCc4c(cc(Cn5ccnc5C)cc4-c4cn(C)nc4C(F)(F)F)C3=O)ccnc2cc1C` , what value of pKi is listed for WD repeat-containing protein 5 (Homo sapiens)?
Reply: 10.62

Task item: For the record `Cc1ccc2cncc(N3CCc4c(cc(Cc5cn(C)cn5)cc4-c4cn(C)nc4C(F)(F)F)C3=O)c2c1` , what value of pKi is listed for WD repeat-containing protein 5 (Homo sapiens)?
Reply: 10.60

Task item: For the record `COc1cc(N2CCN(C)CC2)c2cncc(N3CCc4c(cc(Cn5ccnc5)cc4-c4cn(C)nc4C(F)(F)F)C3=O)c2c1` , what value of pKi is listed for WD repeat-containing protein 5 (Homo sapiens)?
Reply: 10.40

Task item: For the record `CS(=O)(=O)c1cc(NS(=O)(=O)c2cc(Br)cc(Cl)c2O)cc(C2CC2)c1` , what value of pKi is listed for WD repeat-containing protein 5 (Homo sapiens)?
Reply: 6.77

Task item: For the record `COc1cc(Br)c2nc(C)cc(N3CCc4c(cc(Cn5ccnc5)cc4-c4cn(C)nc4C(F)(F)F)C3=O)c2c1` , what value of pKi is listed for WD repeat-containing protein 5 (Homo sapiens)?
Reply: 10.64

Task item: For the record `COC[C@H]1CCCN1C(=O)c1cc(OC(F)(F)F)cc(NS(=O)(=O)c2cc(Br)ccc2O)c1O` , what value of pKi is listed for WD repeat-containing protein 5 (Homo sapiens)?
Reply: 6.17

Task item: For the record `O=C(O)c1cc(-c2cccs2)cc(NS(=O)(=O)c2cc(Br)ccc2O)c1O` , what value of pKi is listed for WD repeat-containing protein 5 (Homo sapiens)?
Reply: 5.97

Task item: For the record `COC[C@H]1CCCN1C(=O)c1cc(OC(F)(F)F)cc(NS(=O)(=O)c2cc(Br)ccc2OC)c1O` , what value of pKi is listed for WD repeat-containing protein 5 (Homo sapiens)?
Reply: 5.23
